B1: CSTF3 (parent)
chain: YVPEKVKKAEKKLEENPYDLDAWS

# Variants of: B1
# assay.details: protein stability index of a GFP-peptide fusion (GPS, HEK-293T) (PSI 1-6); higher = more stable;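 further: lentivirally expressed fusions sorted by FACS into six bins by GFP to DsRed ratio, PSI derived from sequencing read proportions per bin multiplied by bin number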
# condition.label: c terminus: a fixed tail appended
Would you mind telling me the reported protein stability index of each entry?
A bare number is all that is needed in reply.

Identify measured protein stability index corresponding to `D19S`
2.91

Determine from records and report protein stability index for `S24N`
2.26

Query protein stability index for `K11Q`
3.48

Answer with the recorded protein stability index of `E15H` only.
2.05

Read off the recorded protein stability index for `V2N`
4.47

// fetch protein stability index given entry `K8R`
2.54

Give recorded protein stability index. `K7N`
3.83

Check the records and state protein stability index for `E10T`
1.74

Consider the variant `E4C` . State its measured protein stability index.
2.43

Look up and state reported protein stability index for `E14K`
2.88

# return recorded protein stability index for input `A9E`
1.96

Write down protein stability index measured for item `K8S`
3.26

Give protein stability index for `A9R`
3.47

Note down protein stability index recorded for `L20D`
1.73

Give recorded protein stability index. `V2T`
3.18

Recall and state the measured protein stability index for `L13Q` .
2.36

Quote protein stability index reported for `W23I` please.
2.37

Give a short answer stating reported protein stability index for `E10G` .
2.97

Recall and state the measured protein stability index for `K7L` .
3.11

Tell me protein stability index reported for `A22V`
3.55

Return the recorded protein stability index value; entry: `K12Q`
3.16

Identify measured protein stability index associated with `L13A`
2.25
